assay: physchem
Description: Kinetic solubility of compound
Form field: solubility kinetic (one value per entry).
Write it as a number; the unit µM goes unstated.

As a guide, the following entries are already answered.
O=C(Nc1ccc(N2CCOCC2)cc1N1CCOCC1)c1cnn(-c2ccccc2)n1 ... 12.7
COc1ccc(-n2ncc3c(=O)n(CC(=O)Nc4cc(C(F)(F)F)ccc4Cl)cnc32)cc1 ... 3.5
NC(=O)c1ccc(-c2nnn(CC(=O)Nc3cc(C(F)(F)F)ccc3-n3cncn3)n2)cc1 ... 15.9

Qu. Fill in: solubility kinetic of "COc1ccc(Cl)cc1NC(=O)Nc1ccc2nc(NC(=O)c3ccccc3)sc2c1" is ___
Ans. 1.3

====

Quick record: IC50, High affinity nerve growth factor receptor (Homo sapiens).
Write it as a number; the unit nM goes unstated.

As a guide, the following entries are already answered.
COc1ccc(Cl)cc1NC(=O)Nc1ccc2nc(NC(=O)c3ccccc3)sc2c1 ... 178
COc1ccc(-n2ncc3c(=O)n(CC(=O)Nc4cc(C(F)(F)F)ccc4Cl)cnc32)cc1 ... 102
O=C(Nc1ccc(N2CCOCC2)cc1N1CCOCC1)c1cnn(-c2ccccc2)n1 ... 5.2

Now for the compound whose IC50 we want.
Qu. Fill in: IC50 of "NC(=O)c1ccc(-c2nnn(CC(=O)Nc3cc(C(F)(F)F)ccc3-n3cncn3)n2)cc1" is ___
Ans. 47.1

====

Quick record: pIC50, High affinity nerve growth factor receptor (Homo sapiens).
Worth noting: pIC50 values are minus log10 of concentrations stated in mol/L.

COc1ccc(-n2ncc3c(=O)n(CC(=O)Nc4cc(C(F)(F)F)ccc4Cl)cnc32)cc1 ... 5.12

Qu. What reported pIC50 corresponds to "O=C(Nc1ccc(N2CCOCC2)cc1N1CCOCC1)c1cnn(-c2ccccc2)n1" on High affinity nerve growth factor receptor (Homo sapiens)?
Ans. 6.77

====

experiment: in vitro; conditions: dog, MDCK
Description: Permeability from apical to basolateral side in dog MDCK cells
quantity-name: Papp A→B (×10⁻⁶ cm/s)
Write it as a number; the unit ×10⁻⁶ cm/s goes unstated.

Qu. Fill in: Papp A→B of "COc1ccc(-n2ncc3c(=O)n(CC(=O)Nc4cc(C(F)(F)F)ccc4Cl)cnc32)cc1" is ___
Ans. 4.8

Qu. Let us now turn to "O=C(Nc1ccc(N2CCOCC2)cc1N1CCOCC1)c1cnn(-c2ccccc2)n1"
Ans. 4.1

====

Form field: IC50 (one value per entry).
target: High affinity nerve growth factor receptor (Homo sapiens, UniProt P04629)
Sequence (P04629 whole entry): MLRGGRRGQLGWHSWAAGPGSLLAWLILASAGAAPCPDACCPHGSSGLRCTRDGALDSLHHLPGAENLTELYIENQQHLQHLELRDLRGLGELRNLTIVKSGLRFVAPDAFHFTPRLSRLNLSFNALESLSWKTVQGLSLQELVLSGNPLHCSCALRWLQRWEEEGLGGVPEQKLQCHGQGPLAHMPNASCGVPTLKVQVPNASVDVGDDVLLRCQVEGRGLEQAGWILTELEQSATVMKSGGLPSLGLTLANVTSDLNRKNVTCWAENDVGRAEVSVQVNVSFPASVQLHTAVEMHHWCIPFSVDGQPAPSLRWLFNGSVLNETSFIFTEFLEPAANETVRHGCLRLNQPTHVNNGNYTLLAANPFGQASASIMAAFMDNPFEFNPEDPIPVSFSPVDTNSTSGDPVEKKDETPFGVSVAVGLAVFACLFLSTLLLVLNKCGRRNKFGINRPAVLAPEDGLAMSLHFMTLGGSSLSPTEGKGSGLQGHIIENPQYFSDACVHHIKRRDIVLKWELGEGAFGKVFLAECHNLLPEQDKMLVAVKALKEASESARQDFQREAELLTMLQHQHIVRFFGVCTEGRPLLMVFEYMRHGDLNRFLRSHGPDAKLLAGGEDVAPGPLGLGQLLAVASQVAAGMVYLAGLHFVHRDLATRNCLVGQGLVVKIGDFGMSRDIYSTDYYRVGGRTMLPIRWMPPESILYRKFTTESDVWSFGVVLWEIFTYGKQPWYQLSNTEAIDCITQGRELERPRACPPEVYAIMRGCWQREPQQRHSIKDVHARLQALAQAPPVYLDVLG
Write it as a number; the unit µM goes unstated.

O=C(Nc1ccc(N2CCOCC2)cc1N1CCOCC1)c1cccc(Oc2ccccc2)c1 ... 0.094

Now for the compound whose IC50 we want.
Qu. Fill in: IC50 of "O=C(Nc1ccc(N2CCOCC2)cc1N1CCOCC1)c1cnn(-c2ccccc2)n1" is ___
Ans. 0.021

====

Form field: Papp B→A (one value per entry).
assay: in vitro; settings: dog, MDCK-MDR1
Description: Permeability from basolateral to apical side in dog MDCK cells
State the value, then name its unit.

O=C(Nc1ccc(N2CCOCC2)cc1N1CCOCC1)c1cnn(-c2ccccc2)n1 ... 7.6 ×10⁻⁶ cm/s

Now for the compound whose Papp B→A we want.
Qu. Fill in: Papp B→A of "COc1ccc(-n2ncc3c(=O)n(CC(=O)Nc4cc(C(F)(F)F)ccc4Cl)cnc32)cc1" is ___
Ans. 6.4 ×10⁻⁶ cm/s

====

experiment: in vitro; details: dog, liver microsomes
Description: Half-life in dog liver microsome
Form field: half-life (one value per entry).
Write it as a number; the unit h goes unstated.

As a guide, the following entries are already answered.
COc1ccc(-n2ncc3c(=O)n(CC(=O)Nc4cc(C(F)(F)F)ccc4Cl)cnc32)cc1 ... 2
COc1ccc(Cl)cc1NC(=O)Nc1ccc2nc(NC(=O)c3ccccc3)sc2c1 ... 1.25
O=C(Nc1ccc(N2CCOCC2)cc1N1CCOCC1)c1cnn(-c2ccccc2)n1 ... 1.35

Now for the molecule whose half-life we want.
Qu. Fill in: half-life of "NC(=O)c1ccc(-c2nnn(CC(=O)Nc3cc(C(F)(F)F)ccc3-n3cncn3)n2)cc1" is ___
Ans. 2

====

test: in vitro; settings: cat, liver microsomes
Description: Half-life in cat liver microsome
quantity-name: half-life (h)
Write it as a number; the unit h goes unstated.

As a guide, the following entries are already answered.
COc1ccc(-n2ncc3c(=O)n(CC(=O)Nc4cc(C(F)(F)F)ccc4Cl)cnc32)cc1 ... 2
NC(=O)c1ccc(-c2nnn(CC(=O)Nc3cc(C(F)(F)F)ccc3-n3cncn3)n2)cc1 ... 2
O=C(Nc1ccc(N2CCOCC2)cc1N1CCOCC1)c1cnn(-c2ccccc2)n1 ... 0.267

Qu. Fill in: half-life of "COc1ccc(Cl)cc1NC(=O)Nc1ccc2nc(NC(=O)c3ccccc3)sc2c1" is ___
Ans. 0.933

====

target: High affinity nerve growth factor receptor (Homo sapiens, UniProt P04629)
quantity-name: Ki
State the value, then name its unit.

Qu. Fill in: Ki of "O=C(Nc1ccc(N2CCOCC2)cc1N1CCOCC1)c1cnn(-c2ccccc2)n1" is ___
Ans. 0.4 nM
